# Test system: Colon cancer organoid
# TEST: Targeting of F14 CAF-induced therapy resistance in O23 CRC organoid-stroma co-culture. Cell viability is reported without Gefitinib.
# Assay type: functional, Homo sapiens
# RECORDED CONDITIONS: Homo sapiens, Concentration 10 uM; read-out: Cell Viability
READOUT LABEL: viability at 10 µM (%)
Answers are plain numbers, in %.

Some compounds with known viability at 10 µM results, for comparison:
INSERT INTO assay_data (compound, system_under_test, test_value) VALUES
  ('C[C@H]1CCCN1Cc1nc2cc(NC(=O)c3ccc4cnccc4c3)ccc2[nH]1', 'Colon cancer organoid', 68.1),
  ('COc1cc(Nc2nccc(-c3cnn4nc(OC)ccc34)n2)cc(C(F)(F)F)c1', 'Colon cancer organoid', 53.3),
  ('COc1cc(-c2cn([C@H]3CCc4ccccc4N(CC(F)(F)F)C3=O)nn2)ccc1-n1ccc(C)n1', 'Colon cancer organoid', 81.1),
  ('COc1cc(OC)cc(-c2noc(N3CCN(C)C4(CCN(c5ccnc(C)c5)CC4)C3)n2)c1', 'Colon cancer organoid', 108),
  ('Cn1c(C2(NC(=O)c3ccc(NCC4CCCCC4)nc3)CCC2)nc2ccc(/C=C/C(=O)O)cc21', 'Colon cancer organoid', 131);

Give me viability at 10 µM for each of these compounds, listed below.
1. CC(=O)c1cc(-c2ccccc2OCC2CC2)c2ncccn12
2. CNCCN1CCC(OCc2ccccc2)CC1
3. CN(C)CC#Cc1ccc(OCCCc2sc(N3CCc4cccc(C(=O)Nc5nc6ccccc6s5)c4C3)nc2C(=O)O)c(F)c1
4. COc1ccccc1C(=O)Nc1cc2c(cc1N1CCNCC1C)n(C)c(=O)n2C (stereo not given)

142
139
5.72
84

Give me viability at 10 µM for each of these compounds, listed below.
1. Cc1cc(=O)n(C)c2cc(N3C(=O)CC[C@H](NS(=O)(=O)CC(C)C)[C@H]3c3ccc(Cl)cc3)ccc12
2. Cc1ccccc1Oc1cc(-n2c(=O)cc(C(F)(F)F)[nH]c2=O)c2ccccc2c1Cl
3. CNC(=O)c1ccc(Nc2ncc(C(F)(F)F)c(NCc3nccnc3N(C)S(C)(=O)=O)n2)cc1
4. N#CC1(c2ccccn2)CCN(Cc2cc(C(=O)N3CCCC3)c(=O)n3ccccc23)CC1
5. CN(C)C(=O)/C(C#N)=C/c1ccc(-c2nc3cnc4c(ccn4C)c3n2C2CCCCC2)o1

[144, 116, 78.6, 136, 83.6]

Give me viability at 10 µM for each of these compounds, listed below.
1. COc1cc(C(=O)O)ncc1C#Cc1ccccc1NS(=O)(=O)c1cccc2c(N(C)C)ccnc12
2. CC(C)NC(=O)N1CC[C@H](NC2=Nc3cc(F)ccc3N(CC(F)F)c3ccc(Cl)cc32)C1

[131, 79]

* * *

# Test system: Colon cancer organoid
# TEST: Targeting of F14 CAF-induced therapy resistance in O23 CRC organoid-stroma co-culture. Cell viability is reported with SN-38.
# Assay type: functional, Homo sapiens
# RECORDED CONDITIONS: Homo sapiens, Concentration 10 uM; read-out: Cell Viability
Mark yes (1) only when viability at 10 µM stays strictly below 80%. Values equal to the cut-off are no (0).

INSERT INTO assay_data (molecule, category_label) VALUES
  ('COc1cc2c(cc1OCCCN1CCCC1)N=C(N)C21CCC1', 'yes (1)'),
  ('Nc1nc(NCc2ccccc2)nc(-c2ccccc2CO)n1', 'no (0)'),
  ('c1ccc2oc(-c3csc(C4CCN(Cc5nc6ncccc6[nH]5)CC4)n3)cc2c1', 'yes (1)'),
  ('CN(C(=O)c1cnn2cccnc12)c1cc2c(cc1N1CCOCC1)C(=O)N(C[C@@H](F)C(C)(C)O)C2', 'yes (1)'),
  ('COc1cc(Nc2nc(C)cc(-c3cnn4nc(OC)ccc34)n2)cc(C(F)(F)F)c1', 'yes (1)');

Please let me know if Nc1nc(NCc2ccccc2)nc(-c2cccc(CO)c2)n1 shows viability at 10 µM below 80%.
no (0)

Please let me know if Cn1cc(Cl)c2c(Oc3c(F)cc(Nc4cc(Cl)nc(N)n4)cc3F)ccnc21 shows viability at 10 µM below 80%.
yes (1)

Please let me know if CC(C)Oc1ccc(-c2c[nH]cc2CN(C)CCN)cc1 shows viability at 10 µM below 80%.
yes (1)

* * *

# Tested on: Colon cancer organoid
# TEST: Targeting of F14 CAF-induced therapy resistance in O23 CRC organoid-stroma co-culture. Cell viability is reported with Gefitinib.
# Format: functional, Homo sapiens
# RECORDED CONDITIONS: Homo sapiens, Concentration 1 uM; read-out: Cell Viability
Assignment: determine reported viability at 1 µM for the given compounds.
Number first, unit second: that is the form wanted.

INSERT INTO measurements (compound, test_value) VALUES
  ('COc1cc(N[C@@H]2CCCC[C@]2(O)C(F)(F)F)ccc1F', '66.7%'),
  ('CS(=O)(=O)NCC[C@H](NC(=O)c1cncc2c1cnn2-c1ccc(F)cc1)c1ccnc(S(C)(=O)=O)c1', '116%'),
  ('COc1cccc(CNC(=O)c2nc3scc(COCc4ccc(C(=O)O)cc4)c3c(=O)[nH]2)c1 [T-26c]', '68.3%');

Give me viability at 1 µM for each of these compounds, listed below.
1. CNC(=O)Nc1ccc2c(c1)CC[C@@]21OC(=O)N(CC(=O)N(Cc2ccc(F)cc2)[C@@H](C)C(F)(F)F)C1=O
2. Cc1c[nH]c2nccc(Oc3c(F)cc(Nc4cc(Cl)nc(N)n4)cc3F)c12
3. Cc1nc(Cc2cccc(C(F)(F)F)c2)sc1-c1ccc(C(N)=O)nc1 [TP-024n]
4. CS(=O)(=O)c1cc(C2(NC(=O)c3cncc4c3cnn4-c3ccc(F)cc3)CC2)ccn1

1. 34.6%
2. 62.9%
3. 43.7%
4. 107%

* * *

# Tested on: Colon cancer organoid
# TEST: Targeting of F14 CAF-induced therapy resistance in O14 CRC organoid-stroma co-culture. Cell viability is reported without Gefitinib.
# Assay type: functional, Homo sapiens
# RECORDED CONDITIONS: Homo sapiens, Concentration 10 uM; read-out: Cell Viability
READOUT LABEL: viability at 10 µM (%)
Answers are plain numbers, in %.

Some compounds with known viability at 10 µM results, for comparison:
INSERT INTO results (compound, readout_label, test_value) VALUES
  ('COc1cc(Nc2ccnc3ccc(Br)cc23)cc(OC)c1OC', 'viability at 10 µM', 18.2),
  ('c1ccc(N2CCN(Cc3nc4ccccc4[nH]3)CC2)nc1', 'viability at 10 µM', 134),
  ('O=C(Nc1cccnn1)N1CCC(=Cc2cccc(Oc3ccc(C(F)(F)F)cn3)c2)CC1', 'viability at 10 µM', 94),
  ('C[C@H]1CC(=O)Nc2cc(C(=O)NCCC3CC3)ccc2N1C(=O)N1CC2CC2C1 (some centres undefined)', 'viability at 10 µM', 108),
  ('Cc1c(NC(=O)c2cc(C(N)=O)nc3cc(F)ccc23)c(C(F)(F)F)nn1Cc1ccc(C#N)cc1', 'viability at 10 µM', 16.3),
  ('O=C1NC(c2ccccn2)Sc2ccccc21 (centres undefined)', 'viability at 10 µM', 112),
  ('CC1CCN(c2ccnc(NCc3cn(C)cn3)n2)CC1', 'viability at 10 µM', 128),
  ('CCCc1cc(C)[nH]c(=O)c1CNC(=O)c1cc(-c2ccnc(N3CCN(C)CC3)c2)cc2c1cnn2C(C)C', 'viability at 10 µM', 73),
  ('Cn1cncc1[C@@](O)(COc1ccc(C#N)cc1-c1ccc(OC(F)(F)F)cc1)c1ccc(C#N)cc1', 'viability at 10 µM', 108),
  ('C[C@@H](c1cccc(C#N)c1)n1cc(Cl)cc(C(N)=O)c1=N', 'viability at 10 µM', 76.7);

Give me viability at 10 µM for each of these compounds, listed below.
1. FC(F)(F)c1ccc2c(c1)nc(-c1cccnc1)n2C1CC1 [MSD-CYP11B2-Negative-control]
2. COc1ccc2c(c1)O[C@@H](c1ccc(OC)c(OC)c1)C[C@H]2NC(=O)C1(c2ccc3c(c2)OC(F)(F)O3)CC1
3. NS(=O)(=O)c1cc(NC(=O)Cc2ccccc2)ccc1Oc1cccc(Cl)c1

1. 65.1
2. 121
3. 124

Give me viability at 10 µM for each of these compounds, listed below.
1. O=C([C@@H](Cc1cccc(C(F)(F)F)c1)NS(=O)(=O)c1cc(F)c2c(c1)CCNC2)N1CCCC1
2. CN1CCN(Cc2cc(NC(=O)c3ccc4c(c3)CN(c3ccccc3)CC4)cc(C(F)(F)F)c2)CC1
3. COc1cc(C(=O)O)ncc1C#Cc1ccccc1NS(=O)(=O)c1cccc2c(N(C)C)ccnc12
4. Nc1nc(NCc2ccccc2)nc(-c2ccccc2CO)n1
5. COc1cc(-c2cn([C@H]3CCc4ccccc4N(CC(F)(F)F)C3=O)nn2)ccc1-n1ccc(C)n1
6. COc1cc(N(C)c2ccnc3ccc(C(F)(F)F)cc23)cc(OC)c1OC

114
115
117
123
113
109
